# system-tested: PPARδ (Homo sapiens)
# Sequence (Q03181 211-441 limits assumed): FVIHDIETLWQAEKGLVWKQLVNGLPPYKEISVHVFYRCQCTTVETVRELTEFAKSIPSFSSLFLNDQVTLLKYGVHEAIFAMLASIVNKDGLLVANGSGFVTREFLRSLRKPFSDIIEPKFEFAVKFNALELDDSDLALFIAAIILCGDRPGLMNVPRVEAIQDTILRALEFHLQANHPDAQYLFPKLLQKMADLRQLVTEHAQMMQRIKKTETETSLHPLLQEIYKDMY
# experimental-protocol: cell-based
# Format: cell-based
# test-settings: PPAR-GAL4 chimeric receptors, transiently transfected CHO-K1 cells; ia = inactive at 10 μM; read-out: Transactivation activity EC50 PPARδ
pEC50: −log10 of the molar value.

{"compound": "CCC(Cc1ccc(OC)c(C(=O)NCCc2ccc(C(F)(F)F)cc2)c1)C(=O)O (stereo not shown)", "pEC50": 5.82}
{"compound": "CCCC(Cc1ccc(OC)c(C(=O)NCc2ccc(C(F)(F)F)cc2)c1)C(=O)O (stereo not shown)", "pEC50": 5.62}
{"compound": "CCC(Cc1ccc(OC)c(OCCc2ccc(C(F)(F)F)cc2)c1)C(=O)O (stereo not shown)", "pEC50": 6.40}
{"compound": "COc1ccc(CC(C)C(=O)O)cc1C(=O)NCc1ccc(C(F)(F)F)cc1 (stereo not shown)", "pEC50": 5.55}
{"compound": "CCC(Cc1ccc(OC)c(CCCc2ccc(C(F)(F)F)cc2)c1)C(=O)O (stereo not shown)", "pEC50": 6.19}
{"compound": "CCOC(Cc1ccc(OC)c(C(=O)NCc2ccc(C(F)(F)F)cc2)c1)C(=O)O (stereo not shown)", "pEC50": 5.52}
{"compound": "CCC(Cc1ccc(OC)c(CNC(=O)c2ccc(C(F)(F)F)cc2)c1)C(=O)O (racemic)", "pEC50": 6.92}
